experiment: nanoUPLC-ESI-Orbitrap-MS retention, BEH C18, 0.1% formic acid; assay type: physicochemical; details: nanoRP-UPLC, Acquity BEH C18 (1.7 µm), 87-min gradient 3 to 40% acetonitrile, 30 °C, XIC, glycated peptide mixture, 500 fmol each, glucated peptide or glucosyl-lysine species of the fructated peptide
quantityMeasured: retention time (tr) (min)
Numbers only here, please. The scale is min.

Use these answered entries as a reference point.
substance	quantityMeasured	recordedMeasurement
AEFAEVSKAmaLVTDLTK [6B, glucated (Amadori) tryptic peptide HSA A226-K240, K233]	retention time (tr)	56.0
EQLKHeyAVMDDFAAFVEK [7C, fructated (Heyns) tryptic peptide HSA E542-K557, K545]	retention time (tr)	59.5
EQLKAmaAVMDDFAAFVEK [7B, glucated (Amadori) tryptic peptide HSA E542-K557, K545]	retention time (tr)	59.5

Now for the substance whose retention time (tr) we want.
Prompt: For AEFAEVSKHeyLVTDLTK [6C, fructated (Heyns) tryptic peptide HSA A226-K240, K233] , what is its reported retention time (tr)?
Response: 55.7
